# measurement.notes: Cell Viability - LYMP2-008 (AID 980); note: nearly all actives have a fitted effect of over 60% in size
# cond: LYMP2-008 lymphoblastoid cell viability, qHTS; series mostly up to 92.2 µM
Results filed as inconclusive are left out. The source made the active and inactive calls. Calls come from the whole dose curve; as a rule, active = well fitted cell-killing curve with a large enough effect; inconclusive = small, poorly fitted or top-dose-only effect; inactive = flat fitted curve, though single readings scatter.
Outcomes you can answer with include only these: active, inactive

Recorded results for 5 compounds are shown here.
O=[N+]([O-])c1cc([N+](=O)[O-])c2ccc(S(=O)(=O)O)cc2c1O ... inactive
CN1[C@H]2CC(OC(=O)[C@H](CO)c3ccccc3)C[C@H]1[C@H]1O[C@H]12 (stereo not given in full) ... inactive
O=C(/C=C/c1ccc(O)c(O)c1)OC1C[C@](O)(C(=O)O)C[C@@H](O)[C@H]1O (stereo not given in full) ... inactive
O=C1OC(O)C(C(Cl)Cl)=C1Cl (stereo not given) ... active
CCCCCC/C(C=O)=C\c1ccccc1 ... inactive

Hi team, can someone confirm the assay call for Nc1ccc2cc3ccccc3cc2c1 ?
inactive

Hi team, can someone confirm the assay call for CCC(C)Nc1ccc(NC(C)CC)cc1 (stereo not given) ?
active

Hi team, can someone confirm the assay call for Cc1cccc(O)c1C ?
inactive

Hi team, can someone confirm the assay call for CO[C@H]1/C=C/O[C@@]2(C)Oc3c(C)c(O)c4c(O)c(c5c(c4c3C2=O)NC2(CCN(CC(C)C)CC2)N=5)=NC(=O)/C(C)=C\C=C\[C@H](C)[C@H](O)[C@@H](C)[C@@H](O)[C@@H](C)[C@H](OC(C)=O)[C@@H]1C ?
inactive

Hi team, can someone confirm the assay call for O=C(OCC(COC(=O)c1ccccc1)(COC(=O)c1ccccc1)COC(=O)c1ccccc1)c1ccccc1 ?
inactive

###

# measurement.notes: Cell Viability - Renal Proximal Tubule (AID 545);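 note: cells exposed to compound for 40 hours; nearly all actives have a fitted effect of over 40% in size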
# cond: renal proximal tubule cells viability, primary cells of rat origin
Records with an inconclusive call do not appear. The source made the active and inactive calls. The call rests on the fitted dose curve; in most records, active means well fitted cell-killing curve with a large enough effect; inconclusive means small, poorly fitted or top-dose-only effect; inactive means flat fitted curve, though single readings scatter.
Outcomes you can answer with include only these: active, inactive

O=[N+]([O-])c1cc([N+](=O)[O-])c2ccc(S(=O)(=O)O)cc2c1O ... inactive
O=C(/C=C/c1ccc(O)c(O)c1)OC1C[C@](O)(C(=O)O)C[C@@H](O)[C@H]1O (stereo not given in full) ... inactive
CC(=O)Nc1ccc(C(=O)CCl)cc1 ... active
C=C(C)c1ccccc1 ... inactive

We next turn to a different compound, shown below.
Hi team, can someone confirm the assay call for Cc1cc(Nc2ccc(O)cc2)ccc1N ?
inactive

###

# Test system: CP215
# measurement.notes: qHTS profiling for inhibitors of Plasmodium falciparum proliferation (AID 504749); note: nearly all actives have a fitted effect of over 60% in size
# cond: P. falciparum in erythrocytes, SYBR Green DNA, 72 h; series mostly up to 28.7 µM
Results filed as inconclusive are left out. The source made the active and inactive calls. Calls come from the whole dose curve; as a rule, active = well fitted inhibition curve with a large enough effect; inconclusive = small, poorly fitted or top-dose-only effect; inactive = flat fitted curve, though single readings scatter.
Outcomes you can answer with include only these: YES (active), NO (inactive)

Recorded results for 2 compounds are shown here.
CC(O)C1CCC2C3CCC4CC(O)CCC4(C)C3CCC12C (stereo not given) ... NO
CCCCCCCCCCCCCCCC(=O)OC[C@H](O)[C@H]1OC[C@@H](O)[C@@H]1O ... NO

Hi team, can someone confirm the assay call for Nc1nc2[nH]cc(CCc3ccc(C(=O)NC(CCC(=O)O)C(=O)O)cc3)c2c(=O)[nH]1 (stereo not given) ?
YES

Hi team, can someone confirm the assay call for C/C1=C2/[N-]C(C(CC(N)=O)[C@@]2(C)CCC(=O)NCC(C)OP(=O)([O-])O[C@H]2[C@@H](O)[C@@H](n3cnc4cc(C)c(C)cc43)O[C@@H]2CO)[C@]2(C)N=C(/C(C)=C3N=C(/C=C4N=C1C(CCC(N)=O)C\4(C)C)[C@@H](CCC(N)=O)[C@]\3(C)CC(N)=O)[C@@H](CCC(N)=O)[C@]2(C)CC(N)=O.CC(=O)O.[Co] (stereo not given in full) ?
NO

Hi team, can someone confirm the assay call for C[N+]12CCCC[C@@H]1CCC(=C(c1cccs1)c1cccs1)C2 (stereo not given in full) ?
YES

###

# measurement.notes: Stat Signaling Pathway (AID 446);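 note: ME-180 cervical cancer cells given 40 pM IL-6 alongside compound; SIE-controlled beta-lactamase reporter measured as 460/530 nm FRET emission ratio; % is set by controls: 0 for no effect and ±100 for the full control effect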
# cond: ME-180 (cervical carcinoma) SIE beta-lactamase reporter, IL-6 stimulated, 5 h; at 17.2 µM (top of the series) unless noted
Inconclusive results are not listed.
value.type: activity, negative = inhibition (%)
Numbers only, in %.

As a guide, the following entries are already answered.
c1ccc(Cc2nn[nH]n2)cc1 ... 8.05
CN(CCCCCNC(=O)/C=N/O)Cc1ccccc1 ... 9.45
CSc1nc(C)cc(OCCNS(=O)(=O)c2cc(C)ccc2C)n1 ... 1.66
CCOc1ccc(C2C(C(=O)c3ccc(C)o3)=C(O)C(=O)N2CCN2CCOCC2)cc1OC (stereo unspecified) ... 0.944
CC(C)CCNc1nc2c(cc1C#N)COC(C)(C)C2 ... 4.4

Hi, could you look up activity, negative = inhibition for each item in my list?
1. CCN(CC)c1ccc(-c2nn3c(-c4cccnc4)nnc3s2)cc1
2. CCOC(=O)c1ccc2nc(NC(NC(C)=O)(C(=O)OC)C(F)(F)F)sc2c1 (stereo unspecified)
3. CCOC(=O)c1ccc(NC(=O)COc2ccccc2OC)cc1
4. COc1ccc(C2NC(=O)NC(O)(C(F)(F)F)C2C(=O)c2ccc(F)cc2)cc1 (stereo unspecified)
5. CC/C(C)=C1\SC(N2CCN(C(C)=O)CC2)=NC1=O
6. COc1ccccc1N(Cc1cc2cccc(C)c2[nH]c1=O)C(=O)C(C)C

1: -29.8; 2: -10.8; 3: 2.17; 4: -0.989; 5: 8.03; 6: -8.46

###

# Tested on: CP211
# measurement.notes: qHTS profiling for inhibitors of Plasmodium falciparum proliferation (AID 504749); note: nearly all actives have a fitted effect of over 60% in size
# cond: P. falciparum in erythrocytes, SYBR Green DNA, 72 h; series mostly up to 28.7 µM
Inconclusive results are not listed. Active and inactive are the calls of the source. The call rests on the fitted dose curve; in most records, active means well fitted inhibition curve with a large enough effect; inconclusive means small, poorly fitted or top-dose-only effect; inactive means flat fitted curve, though single readings scatter.
Outcomes you can answer with include only these: active, inactive

Recorded results for 3 compounds are shown here.
CC(C)CCCC(C)C1CC(=O)C2=C3CCC4CC(O)CCC4(C)C3CCC21C (stereo not given) ... inactive
CC1(C)O[C@@H]2C[C@H]3[C@@H]4CCC5=CC(=O)C=C[C@]5(C)[C@H]4C(O)C[C@]3(C)[C@]2(C(=O)CO)O1 (stereo not given in full) ... inactive
CCCCC(=O)O[C@]1(C(=O)CO)CCC2C3CCC4=CC(=O)CCC4(C)C3C(O)CC21C (stereo not given in full) ... inactive

Hi team, can someone confirm the assay call for Cc1ccc(S(=O)(=O)NC(=O)NC(C)Cc2ccccc2)cc1 (stereo not given) ?
inactive

Hi team, can someone confirm the assay call for CN1[C@@H]2CC[C@@H]1CC(OC(=O)[C@H](CO)c1ccccc1)C2 (stereo not given in full) ?
inactive

Hi team, can someone confirm the assay call for CC1(C)SC2C(NC(=O)C(C(=O)O)c3ccccc3)C(=O)N2C1C(=O)O (stereo not given) ?
inactive

Hi team, can someone confirm the assay call for NCCCCC(N)C(=O)O (stereo not given) ?
inactive

Hi team, can someone confirm the assay call for CO/N=C(/C(=O)N[C@@H]1C(=O)N2C(C(=O)O)=C(CSC(=O)c3ccco3)CSC12)c1csc(N)n1 (stereo not given in full) ?
inactive

Hi team, can someone confirm the assay call for O=C1NC(=O)C2C3C=CC(C3)C12 (stereo not given) ?
inactive

Hi team, can someone confirm the assay call for Oc1cc2cc(CCN3CCN(c4nsc5ccccc45)CC3)c(Cl)cc2[nH]1 ?
inactive

Hi team, can someone confirm the assay call for Cc1cnc(NC(=O)C2C(=O)c3ccccc3S(=O)(=O)N2C)s1 (stereo not given) ?
inactive

Hi team, can someone confirm the assay call for Nc1nc(Cl)nc2c1ncn2[C@@H]1O[C@H](CO)[C@H](O)C1F (stereo not given in full) ?
inactive

Hi team, can someone confirm the assay call for CC(c1ncncc1F)[C@](O)(Cn1cncn1)c1ccc(F)cc1F (stereo not given in full) ?
inactive

Hi team, can someone confirm the assay call for CCOc1ccccc1O[C@@H](c1ccccc1)[C@@H]1CNCCO1 ?
inactive

Hi team, can someone confirm the assay call for C=NC(C(=O)NC1C(=O)N2C1SC(C)(C)C2C(=O)O)c1ccccc1 (stereo not given) ?
inactive

Hi team, can someone confirm the assay call for O=C(O)C[CH2][Ge](=[O])[O][Ge](=[O])[CH2]CC(=O)O ?
inactive

###

# System: PC49
# measurement.notes: qHTS profiling for inhibitors of Plasmodium falciparum proliferation (AID 504749); note: nearly all actives have a fitted effect of over 60% in size
# cond: P. falciparum in erythrocytes, SYBR Green DNA, 72 h; series mostly up to 28.7 µM
Inconclusive results are not listed. Calls of active or inactive are those of the source. Calls follow the shape of the dose curve; as a rule, active = well fitted inhibition curve with a large enough effect; inconclusive = small, poorly fitted or top-dose-only effect; inactive = flat fitted curve, though single readings scatter.
Outcomes you can answer with include only these: yes (1) (active), no (0) (inactive)

Recorded results for 6 compounds are shown here.
CO[C@H]1OC2O[C@@]3(C)CC[C@H]4[C@H](C)CC[C@@H]([C@H]1C)[C@@]24OO3 (stereo not given in full) ... yes (1)
CN1[C@H]2CC(OC(=O)[C@H](CO)c3ccccc3)C[C@H]1[C@H]1O[C@H]12 (stereo not given in full) ... no (0)
CC1OC(OC2C(O)CC(OC3C(O)CC(OC4CCC5(C)C(CCC6C5CCC5(C)C(C7=CC(=O)OC7)CCC65O)C4)OC3C)OC2C)CC(O)C1O (stereo not given) ... no (0)
CNC1C(O)C(OC2C(NC(=O)C(O)CN)CC(N)C(OC3OC(CN)C(O)C(O)C3O)C2O)OCC1(C)O (stereo not given) ... no (0)
OCC(O)C(O)C(O)C(O)CO (stereo not given) ... no (0)
CCN(CC)CC(=O)Nc1c(C)cc(C)cc1C ... no (0)

Hi team, can someone confirm the assay call for Cc1cnc(NC(=O)C2C(=O)c3ccccc3S(=O)(=O)N2C)s1 (stereo not given) ?
no (0)

Hi team, can someone confirm the assay call for CC1=C(c2ccc(NN=C(C#N)C#N)cc2)NNC(=O)C1 ?
no (0)

Hi team, can someone confirm the assay call for Cc1cc2nc3c(=O)[nH]c(=O)nc-3n(CC(O)C(O)C(O)COP(=O)(O)O)c2cc1C (stereo not given) ?
no (0)

Hi team, can someone confirm the assay call for CC(=O)CC(c1ccccc1)C1C(=O)Oc2ccccc2C1=O (stereo not given) ?
no (0)

Hi team, can someone confirm the assay call for CC(c1ncncc1F)[C@](O)(Cn1cncn1)c1ccc(F)cc1F (stereo not given in full) ?
no (0)

Hi team, can someone confirm the assay call for CCC(=O)OC1C(N(C)C)CC(C)O[C@H]1O[C@H]1[C@H](C)[C@@H](O[C@H]2CC(OC)[C@@H](O)C(C)O2)[C@H](C)C(=O)O[C@@H](CC)[C@](C)(O)[C@@H](O)[C@H](C)C(=O)[C@@H](C)C[C@]1(C)O (stereo not given in full) ?
no (0)

Hi team, can someone confirm the assay call for C[C@H](O)[C@@H]1C(=O)N2C(C(=O)O)=C(SCCN=CN)C[C@@H]12 ?
no (0)
